Where these numbers come from: paper PMC12093383

Reported Φf luminescence quantum yield values are given for each entry in this list.
Assay: Fluorescence quantum yield
Type: physicochemical
Conditions: DMSO, ligands excited at 503 nm, ruthenium complexes at 573 nm, relative to verteporfin
Give the value, in units of %, as a plain number.

Compound: C=Cc1c(C)c2cc3nc(cc4[nH]c(cc5nc(cc1[nH]2)C(C)=C5CCC(=O)OCc1ccccc1)c(CCC(=O)OCc1ccccc1)c4C)C1(C)C3=CCC(C(=O)OC)=C1C(=O)OC (stereo not drawn)
Φf luminescence quantum yield / %: 1.0
--
Compound: C=Cc1c(C)c2cc3nc(cc4[nH]c(cc5nc(cc1[nH]2)C1(C)C5=CCC(C(=O)OC)=C1C(=O)OC)c(C)c4CCC(=O)OCc1ccccc1)C(CCC(=O)OCc1ccccc1)=C3C (stereo not drawn)
Φf luminescence quantum yield / %: 1.0

The measured Φf luminescence quantum yield associated with C=Cc1c(C)c2cc3nc(cc4[nH]c(cc5nc(cc1[nH]2)C1(C)C5=CCC(C(=O)OC)=C1C(=O)OC)c(C)c4CCC(=O)OC)C(CCC(=O)OC)=C3C (stereo not drawn) reads 1.2

----------
Assay: Shake-flask partition coefficient, 1-octanol/PBS
Format: physicochemical
Conditions: average of three independent experiments at 27 °C
Could you label it t if measured log PO/PBS is 1 or higher, and f otherwise?

Previously resolved entries follow.
Compound: C=CC1=C(C)c2cc3[nH]c(cc4nc(cc5[nH]c(cc1n2)c(C)c5CCC(=O)OCc1ccccc1)C(CCC(=O)OCc1ccccc1)=C4C)c(C)c3C=C
Qualitative Label: t

Compound: C=Cc1c(C)c2cc3nc(cc4[nH]c(cc5nc(cc1[nH]2)C(C)=C5CCC(=O)OC)c(CCC(=O)OC)c4C)C1(C)C3=CCC(C(=O)OC)=C1C(=O)OC (stereo not drawn)
Qualitative Label: t

Compound: C=Cc1c(C)c2cc3nc(cc4[nH]c(cc5nc(cc1[nH]2)C(C)=C5CCC(=O)OCc1ccccc1)c(CCC(=O)OCc1ccccc1)c4C)C1(C)C3=CCC(C(=O)OC)=C1C(=O)OC (stereo not drawn)
Qualitative Label: t

Compound: C=CC1=C(C)c2cc3[nH]c(cc4nc(cc5[nH]c(cc1n2)c(C)c5CCC(=O)OC)C(CCC(=O)OC)=C4C)c(C)c3C=C
Qualitative Label: f

Compound: C=Cc1c(C)c2cc3nc(cc4[nH]c(cc5nc(cc1[nH]2)C1(C)C5=CCC(C(=O)OC)=C1C(=O)OC)c(C)c4CCC(=O)OCc1ccccc1)C(CCC(=O)OCc1ccccc1)=C3C (stereo not drawn)
Qualitative Label: t

Query compound follows.
Inquiry: Quick check, log PO/PBS >= 1? C=Cc1c(C)c2cc3nc(cc4[nH]c(cc5nc(cc1[nH]2)C1(C)C5=CCC(C(=O)OC)=C1C(=O)OC)c(C)c4CCC(=O)OC)C(CCC(=O)OC)=C3C (stereo not drawn)
Reply text: t

----------
Tested on: AGS gastric cancer cells
Assay: MTT survival assay, dark or white-light irradiation
Format: cell-based, human
Settings: IC50 dark/light ratio
Reported PI (phototoxicity index) values are given for each entry in this list.

Compound: C=Cc1c(C)c2cc3nc(cc4[nH]c(cc5nc(cc1[nH]2)C1(C)C5=CCC(C(=O)OC)=C1C(=O)OC)c(C)c4CCC(=O)OCc1ccccc1)C(CCC(=O)OCc1ccccc1)=C3C (centres unmarked)
PI (phototoxicity index): >36
--
Compound: C=CC1=C(C)c2cc3[nH]c(cc4nc(cc5[nH]c(cc1n2)c(C)c5CCC(=O)OC)C(CCC(=O)OC)=C4C)c(C)c3C=C
PI (phototoxicity index): > 17
--
Compound: C=CC1=C(C)c2cc3[nH]c(cc4nc(cc5[nH]c(cc1n2)c(C)c5CCC(=O)OCc1ccccc1)C(CCC(=O)OCc1ccccc1)=C4C)c(C)c3C=C
PI (phototoxicity index): > 18
--
Compound: C=Cc1c(C)c2cc3nc(cc4[nH]c(cc5nc(cc1[nH]2)C(C)=C5CCC(=O)OCc1ccccc1)c(CCC(=O)OCc1ccccc1)c4C)C1(C)C3=CCC(C(=O)OC)=C1C(=O)OC (centres unmarked)
PI (phototoxicity index): >40

Note: attention shifts to another entry.
The measured PI (phototoxicity index) associated with `C=CC1=C(C)c2cc3[nH]c(cc4nc(cc5[nH]c(cc1n2)c(C)c5CCC(=O)O)C(CCC(=O)O)=C4C)c(C)c3C=C` reads >200
